Target: ΔF508-CFTR (Homo sapiens, UniProt P13569, DEL508-508)
Construct: host or cells: CFBE41o-, doxycycline-inducible
Sequence (P13569 with tags, fused parts or gaps DEL508-508): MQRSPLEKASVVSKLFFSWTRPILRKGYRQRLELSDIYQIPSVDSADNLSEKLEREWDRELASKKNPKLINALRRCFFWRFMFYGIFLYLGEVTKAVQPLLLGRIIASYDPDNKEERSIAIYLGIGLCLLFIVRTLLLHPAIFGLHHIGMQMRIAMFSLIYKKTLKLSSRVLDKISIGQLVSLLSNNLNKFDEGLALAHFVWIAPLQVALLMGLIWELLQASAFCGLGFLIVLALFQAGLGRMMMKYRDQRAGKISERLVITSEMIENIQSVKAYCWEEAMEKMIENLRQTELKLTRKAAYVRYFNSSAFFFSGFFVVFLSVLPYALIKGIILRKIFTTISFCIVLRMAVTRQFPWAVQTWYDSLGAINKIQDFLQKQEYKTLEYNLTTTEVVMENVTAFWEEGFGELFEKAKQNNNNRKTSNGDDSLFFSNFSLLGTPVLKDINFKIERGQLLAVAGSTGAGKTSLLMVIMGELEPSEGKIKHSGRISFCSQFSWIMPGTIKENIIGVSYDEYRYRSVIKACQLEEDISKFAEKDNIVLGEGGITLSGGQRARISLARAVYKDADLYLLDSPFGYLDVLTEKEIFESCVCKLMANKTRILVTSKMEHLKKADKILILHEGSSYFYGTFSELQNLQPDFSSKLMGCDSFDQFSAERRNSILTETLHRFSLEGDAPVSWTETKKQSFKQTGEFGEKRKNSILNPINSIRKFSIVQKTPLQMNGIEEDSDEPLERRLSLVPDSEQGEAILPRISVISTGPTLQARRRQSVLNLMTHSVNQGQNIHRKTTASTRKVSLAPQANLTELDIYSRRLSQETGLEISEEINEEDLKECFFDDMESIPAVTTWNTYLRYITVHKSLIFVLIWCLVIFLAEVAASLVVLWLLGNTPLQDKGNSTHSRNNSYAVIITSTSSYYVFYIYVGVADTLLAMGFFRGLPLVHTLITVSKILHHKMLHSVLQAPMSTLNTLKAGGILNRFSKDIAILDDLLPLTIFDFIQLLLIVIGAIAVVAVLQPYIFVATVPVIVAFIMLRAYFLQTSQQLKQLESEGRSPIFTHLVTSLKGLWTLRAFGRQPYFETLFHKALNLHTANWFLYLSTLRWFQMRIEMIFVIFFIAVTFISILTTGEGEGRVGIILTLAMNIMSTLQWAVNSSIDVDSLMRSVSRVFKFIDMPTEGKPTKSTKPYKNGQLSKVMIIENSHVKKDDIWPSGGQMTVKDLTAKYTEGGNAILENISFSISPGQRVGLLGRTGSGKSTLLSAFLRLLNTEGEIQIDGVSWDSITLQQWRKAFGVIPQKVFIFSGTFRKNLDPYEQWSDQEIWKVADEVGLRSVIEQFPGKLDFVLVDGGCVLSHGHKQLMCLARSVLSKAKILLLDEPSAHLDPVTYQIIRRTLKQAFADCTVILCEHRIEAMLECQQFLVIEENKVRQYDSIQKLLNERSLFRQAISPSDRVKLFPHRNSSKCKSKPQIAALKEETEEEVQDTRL
Assay: CFTR cell surface levels using HRP-tagged ΔF508-CFTR expressing CFBE cells, in the presence of a co-corrector
Format: cell-based
Conditions: HRP-tagged ΔF508-CFTR expressing CFBE cells, in the presence of 3 μM co-corrector
measurement type: % Activation (%)
The response must be a number in % with no trailing unit.

// % Activation value for Cc1cccc(-n2nc(C(C)C)c3c(N4CCC(C(F)(F)F)C4)cc(C(=O)O)nc32)c1 (stereo not shown) : 347.15

// % Activation value for "Cc1nn(-c2ccccc2)c2nc(C(=O)O)cc(OC3COC3)c12" : 149.55

// % Activation value for "CN(C)CCCOc1cc(C(=O)O)nc2c1c(C1CCC1)nn2-c1ccccc1" : 233.85

// % Activation value for "O=C(O)c1cc(N2CCC(N3CCOCC3)CC2)c2c(C3CCC3)nn(-c3cccc(F)c3)c2n1" : 455.85

// % Activation value for "O=C(O)c1cc(N2CCC(N3CCOCC3)CC2)c2c(C3CCC3)nn(-c3cc(F)cc(F)c3)c2n1" : 466.55

// % Activation value for "COc1cccc(-n2nc(C)c3c(-c4ccc(N5CCN(CC#N)CC5)cc4)cc(C(=O)O)nc32)c1" : 380.95

// % Activation value for "Cc1nn(-c2ccccc2)c2nc(C(=O)O)cc(OCC3(C)CC(F)(F)C3)c12" : 250.65

// % Activation value for "Cc1nn(-c2ccccc2)c2nc(C(=O)O)cc(-c3ccc(N4CC(N(C)C)C4)cc3)c12" : 308.1

// % Activation value for CC(C1CCN(c2cc(C(=O)O)nc3c2c(C2CCC2)nn3-c2ccc(F)cc2)CC1)N1CCOCC1 (stereo not shown) : 671

// % Activation value for Cc1nn(-c2ccccc2)c2nc(C(=O)O)cc(-c3ccc(N4CCOC(CO)C4)cc3)c12 (stereo not shown) : 280.3

// % Activation value for "O=C(O)c1cc(N2CCN(CC(F)(F)F)CC2)c2c(C3CCC3)nn(-c3ccccc3)c2n1" : 311.25

// % Activation value for "O=C(O)c1cc(-c2ccc(N3CCOCC3)cc2)c2c(C3CCC3)nn(-c3cccc(C(F)(F)F)c3)c2n1" : 429.9

// % Activation value for "CC(C)c1nn(-c2ccc(F)cc2)c2nc(C(=O)O)cc(N3CCCN(C)CC3)c12" : 157.2

// % Activation value for "Cc1nn(-c2ccccc2)c2nc(C(=O)O)cc(-c3ccc(NC4CCOCC4)cc3)c12" : 368.6

// % Activation value for "COCCOC1CCN(c2cc(C(=O)O)nc3c2c(C)nn3-c2ccccc2)CC1" : 323.72

// % Activation value for "C[C@@H]1CN(c2cc(C(=O)O)nc3c2c(C2CCC2)nn3C2CCCCC2)CCN1Cc1ccccc1" : 363.85
